Biological target: glucocerebrosidase (Gcase) (Homo sapiens, UniProt P04062)
Construct: micellar solution containing 10 nM GCase and 100 nM saposin C (Enzo ALX-201-262-C050)
Sequence (P04062 40-536): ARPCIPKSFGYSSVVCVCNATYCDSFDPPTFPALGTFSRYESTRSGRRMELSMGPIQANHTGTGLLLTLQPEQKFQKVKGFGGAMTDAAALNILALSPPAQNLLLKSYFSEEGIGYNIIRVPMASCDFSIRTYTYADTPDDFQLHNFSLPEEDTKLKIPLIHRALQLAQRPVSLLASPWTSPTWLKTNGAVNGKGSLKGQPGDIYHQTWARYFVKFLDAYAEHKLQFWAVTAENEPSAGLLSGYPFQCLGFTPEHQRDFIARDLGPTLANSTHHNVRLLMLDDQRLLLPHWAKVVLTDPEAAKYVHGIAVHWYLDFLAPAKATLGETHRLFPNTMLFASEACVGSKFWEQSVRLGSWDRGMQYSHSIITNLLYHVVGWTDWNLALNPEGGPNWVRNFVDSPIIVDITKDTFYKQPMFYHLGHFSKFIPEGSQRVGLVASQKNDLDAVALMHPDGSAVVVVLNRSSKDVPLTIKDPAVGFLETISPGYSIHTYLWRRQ
Experiment: Glucocerebrosidase (Gcase) activation assay, 4-methylumbelliferyl-beta-D-glucopyranoside substrate, with saposin C
Type: biochemical
Conditions: read-out: Percent Gcase Activation 1 μM Test Compound
reportedMetric: activation at 1 µM

1. Cc1ccc(NC(=O)c2cnc3sc(C)cn3c2=O)cc1 | 5 to 20%
2. Cc1ccn2c(=O)c(C(=O)NC3CCc4ccccc4C3)cnc2c1 (stereo not shown) | 5 to 20%
3. O=C(NC1CCC2(CCCCO2)CC1)c1cnc2n(c1=O)CCS2 (stereo not shown) | < 5%
4. CCC(C)c1ccc(NC(=O)c2cnc3n(c2=O)CCS3)cc1 (stereo not shown) | > 20%
5. CCc1ccc(CNC(=O)c2cnc3sccn3c2=O)cc1 | 5 to 20%
6. CCC(C)c1ccc(NC(=O)c2cnc3ccccn3c2=O)cc1 (stereo not shown) | 5 to 20%
7. Cc1ccc(NC(=O)c2cnc3scc(C)n3c2=O)cc1Cl | 5 to 20%
8. CCc1ccc(NC(=O)c2cnc3n(c2=O)CCS3)cc1 | > 20%
9. COc1ccc(NC(=O)c2cnc3scc(C)n3c2=O)cc1 | > 20%
10. Cc1ccc(CNC(=O)c2cnc3scc(C)n3c2=O)cc1 | 5 to 20%
11. CCCCC1CCC(NC(=O)c2cnc3n(c2=O)CC(C)S3)CC1 (stereo not shown) | > 20%
12. O=C(NC1CCCCC12CCCCO2)c1cnc2n(c1=O)CCS2 (stereo not shown) | < 5%
13. Cc1cccc2ncc(C(=O)NC3CCCc4ccccc43)c(=O)n12 (stereo not shown) | > 20%

This collection of values is drawn from patent US20190112316A1.
